Cited source: patent US20240368668A1

Biological target: mouse ADAMTS7 (Mus musculus, UniProt Q68SA9, E373Q)
Construct: Full-length mouse Adamts7 1-1857 (Uniprot Q68SA9, WT or E373Q catalytic mutant); expressed in transfected cells; host or cells: Human Coronary Artery Smooth Muscle Cells (HCA-SMC, Lonza), adenovirus 50 MOI
Sequence (Q68SA9 221-1657 E373Q): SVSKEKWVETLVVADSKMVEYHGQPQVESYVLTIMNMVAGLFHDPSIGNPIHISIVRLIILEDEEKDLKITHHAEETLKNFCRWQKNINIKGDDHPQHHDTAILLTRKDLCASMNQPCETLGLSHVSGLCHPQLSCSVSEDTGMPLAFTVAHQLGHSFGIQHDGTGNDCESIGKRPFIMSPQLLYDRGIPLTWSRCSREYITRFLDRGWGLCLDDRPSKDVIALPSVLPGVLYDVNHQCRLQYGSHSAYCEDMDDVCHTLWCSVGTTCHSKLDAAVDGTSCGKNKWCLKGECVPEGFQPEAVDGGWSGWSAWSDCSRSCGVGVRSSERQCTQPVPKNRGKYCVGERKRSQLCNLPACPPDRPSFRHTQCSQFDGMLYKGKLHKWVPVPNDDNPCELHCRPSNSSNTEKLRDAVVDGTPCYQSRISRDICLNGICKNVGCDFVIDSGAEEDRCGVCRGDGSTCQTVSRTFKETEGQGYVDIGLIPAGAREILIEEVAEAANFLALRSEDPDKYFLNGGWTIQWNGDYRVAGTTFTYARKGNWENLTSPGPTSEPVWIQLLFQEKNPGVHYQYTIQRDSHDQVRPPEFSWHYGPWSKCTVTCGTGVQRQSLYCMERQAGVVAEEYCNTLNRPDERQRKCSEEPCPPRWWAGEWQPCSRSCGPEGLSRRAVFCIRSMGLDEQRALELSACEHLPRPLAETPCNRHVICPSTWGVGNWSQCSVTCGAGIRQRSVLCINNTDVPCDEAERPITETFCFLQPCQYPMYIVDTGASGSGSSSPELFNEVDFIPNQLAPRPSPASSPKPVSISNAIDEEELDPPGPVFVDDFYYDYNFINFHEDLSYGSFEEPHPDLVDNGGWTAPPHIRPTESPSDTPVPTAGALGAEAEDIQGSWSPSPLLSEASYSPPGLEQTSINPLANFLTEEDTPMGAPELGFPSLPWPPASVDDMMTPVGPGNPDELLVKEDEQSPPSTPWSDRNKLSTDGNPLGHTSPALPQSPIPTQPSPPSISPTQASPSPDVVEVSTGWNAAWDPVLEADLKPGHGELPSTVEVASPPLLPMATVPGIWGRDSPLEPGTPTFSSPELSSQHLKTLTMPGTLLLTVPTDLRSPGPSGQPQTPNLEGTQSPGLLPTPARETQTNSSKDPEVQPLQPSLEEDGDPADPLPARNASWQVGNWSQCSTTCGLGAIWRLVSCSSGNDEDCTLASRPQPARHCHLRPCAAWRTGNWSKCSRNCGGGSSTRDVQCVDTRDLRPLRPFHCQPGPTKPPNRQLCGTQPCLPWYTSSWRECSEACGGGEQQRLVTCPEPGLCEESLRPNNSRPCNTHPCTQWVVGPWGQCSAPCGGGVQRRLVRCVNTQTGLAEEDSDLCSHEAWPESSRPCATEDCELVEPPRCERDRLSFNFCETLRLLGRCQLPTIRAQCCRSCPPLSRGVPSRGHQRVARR
Assay: TMT10 TAILS N-terminomics, HUVEC experiment (process replicates, trypsin/AspN digest)
Assay type: cell-based, human
Conditions: HUVEC TAILS HC; log fold change of N-terminal peptide, Ad-mADAMTS7 EQ over Luc
Square brackets hold non-standard residues; d marks the D form. Ends that are not written are not given here. Met(O) = CS(=O)CC[C@H](N)C(=O)O
endpoint: logFC.mEQ.over.Luc

See these solved cases before continuing.
{"substance": "LOXL2_37 (FQQPAPEYHQPQAPANVAKIQLR; listed as Homo sapiens)", "experimental-target": "mouse ADAMTS7 (Mus musculus, UniProt Q68SA9, E373Q)", "logFC.mEQ.over.Luc": "−0.65"}
{"substance": "UQCRH_76 (HGSPNNSERAMRAVGE[Met(O)]CKGPGAAR; listed as Homo sapiens)", "experimental-target": "mouse ADAMTS7 (Mus musculus, UniProt Q68SA9, E373Q)", "logFC.mEQ.over.Luc": 0.01}
{"substance": "FN1_886 (NQESTPVVIQQETTGTPR; listed as Homo sapiens)", "experimental-target": "mouse ADAMTS7 (Mus musculus, UniProt Q68SA9, E373Q)", "logFC.mEQ.over.Luc": "−0.43"}
{"substance": "FN1_34 ([code q]QMVQPQSPVAVSQSKPGCY; not fully specified (residue 3); listed as Homo sapiens)", "experimental-target": "mouse ADAMTS7 (Mus musculus, UniProt Q68SA9, E373Q)", "logFC.mEQ.over.Luc": "−0.06"}
{"substance": "MCFD2_55 (HLEGVINKPEA; listed as Homo sapiens)", "experimental-target": "mouse ADAMTS7 (Mus musculus, UniProt Q68SA9, E373Q)", "logFC.mEQ.over.Luc": 0.14}
{"substance": "FN1_607 (SSSGPVEVFIT; listed as Homo sapiens)", "experimental-target": "mouse ADAMTS7 (Mus musculus, UniProt Q68SA9, E373Q)", "logFC.mEQ.over.Luc": "−0.40"}

[P] BICD1_280 (NNDDKMNGHIHGPLVKLNGDYR; listed as Homo sapiens)
[Q] LTBP2_250 (SAAGEGTLAR; listed as Homo sapiens)
**Q:** # returns the entry with the larger logFC.mEQ.over.Luc; inputs P and Q // output: label of the selected item
**A:** Q
(Q: 0.12, P: −0.08)
